Origin of values: patent US9447108B2

Entries and their Time course of the antinociceptive effects (paw-withdrawal latency) values follow.
- Tested on: rats
- run description: Behavioral nociceptive testing, paw-withdrawal test (PWD), heat pain threshold
- Assay type: in vivo, rat
- protocol conditions: 3 mg/kg s.c., 120 min
assay endpoint: Time course of the antinociceptive effects (paw-withdrawal latency) (s)

INSERT INTO assay_data (molecule, measured_value) VALUES
  ('[2H][C@@H]1[C@H]([2H])[C@H]2[C@H]3Cc4ccc(OC)c5c4[C@@]2(CCN3C)[C@@H](O5)[C@H]1O', 11.8),
  ('CN1CC[C@]23c4c5ccc(O)c4O[C@H]2[C@@H](O)CC[C@H]3[C@H]1C5 [Dihydromorphine]', 13.3),
  ('CCOc1ccc2c3c1O[C@H]1[C@@H](O)CC[C@H]4[C@@H](C2)N(C)CC[C@@]341 [Dihydroethylmorphine]', 9.9),
  ('COc1ccc2c3c1O[C@H]1C(=O)CC[C@@]4(O)[C@@H](C2)N(C)CC[C@]314', 10.6),
  ('[2H][C@@H]1[C@H]([2H])[C@H]2[C@H]3Cc4ccc(O)c5c4[C@@]2(CCN3C)[C@@H](O5)[C@H]1O', 14.1),
  ('[2H][C@@H]1[C@H]([2H])[C@H]2[C@H]3Cc4ccc(OC(C)=O)c5c4[C@@]2(CCN3C)[C@@H](O5)[C@H]1OC(C)=O', 11.4),
  ('[2H][C@H]1C(=O)[C@@H]2Oc3c(OC)ccc4c3[C@@]23CCN(C)[C@H](C4)[C@]3(O)[C@H]1[2H]', 12.1),
  ('COc1ccc2c3c1O[C@H]1[C@@H](O)CC[C@H]4[C@@H](C2)N(C)CC[C@@]341 [Dihydrocodeine]', 10.3),
  ('CN1CC[C@]23c4c5ccc(O)c4O[C@H]2[C@@H](O)C=C[C@H]3[C@H]1C5', 12.8),
  ('CC(=O)Oc1ccc2c3c1O[C@H]1[C@@H](OC(C)=O)CC[C@H]4[C@@H](C2)N(C)CC[C@@]341 [Dihydroheroine]', 10.7);

* * *

Measured Time course of the antinociceptive effects (paw-withdrawal latency) values are reported for all entries that follow.
- Test system: rats
- run description: Behavioral nociceptive testing, paw-withdrawal test (PWD), heat pain threshold
- Assay type: in vivo, rat
- protocol conditions: 10 mg/kg s.c., 60 min
assay endpoint: Time course of the antinociceptive effects (paw-withdrawal latency) (s)

INSERT INTO measurements (compound, units, measured_value) VALUES
  ('[2H][C@@H]1[C@H]([2H])[C@H]2[C@H]3Cc4ccc(O)c5c4[C@@]2(CCN3C)[C@@H](O5)[C@H]1O', 's', 22.1),
  ('COc1ccc2c3c1O[C@H]1[C@@H](O)CC[C@H]4[C@@H](C2)N(C)CC[C@@]341 [Dihydrocodeine]', 's', 13.6),
  ('CCOc1ccc2c3c1O[C@H]1[C@@H](O)CC[C@H]4[C@@H](C2)N(C)CC[C@@]341 [Dihydroethylmorphine]', 's', 12.3),
  ('CN1CC[C@]23c4c5ccc(O)c4O[C@H]2[C@@H](O)C=C[C@H]3[C@H]1C5', 's', 18.8),
  ('[2H][C@@H]1[C@H]([2H])[C@H]2[C@H]3Cc4ccc(OC)c5c4[C@@]2(CCN3C)[C@@H](O5)[C@H]1O', 's', 14.8),
  ('CN1CC[C@]23c4c5ccc(O)c4O[C@H]2[C@@H](O)CC[C@H]3[C@H]1C5 [Dihydromorphine]', 's', 20.6);

* * *

- target entity: δ-opioid receptors (Rattus norvegicus, UniProt P33533)
- Construct: A crude membrane fraction was prepared from Wistar rat brains and spinal cords; from tissue; host or cells: Wistar rat brain (without cerebellum), crude membrane fraction
- Sequence (P33533 whole entry): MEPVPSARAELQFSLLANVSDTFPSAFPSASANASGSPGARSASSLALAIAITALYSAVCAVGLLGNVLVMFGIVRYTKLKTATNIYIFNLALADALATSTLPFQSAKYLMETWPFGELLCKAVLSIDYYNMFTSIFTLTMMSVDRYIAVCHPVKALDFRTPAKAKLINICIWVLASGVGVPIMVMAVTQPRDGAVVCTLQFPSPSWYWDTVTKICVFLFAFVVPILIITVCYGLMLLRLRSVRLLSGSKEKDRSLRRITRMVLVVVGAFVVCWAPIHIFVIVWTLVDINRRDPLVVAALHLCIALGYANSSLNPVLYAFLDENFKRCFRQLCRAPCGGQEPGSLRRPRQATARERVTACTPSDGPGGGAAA
- run description: Receptor binding assay, [3H]Ile5,6-deltorphin-2 displacement in rat brain membranes
assay endpoint: Ki

INSERT INTO assay_data (compound, target_entity, measured_value) VALUES
  ('[2H][C@@H]1[C@H]([2H])[C@H]2[C@H]3Cc4ccc(OC(C)=O)c5c4[C@@]2(CCN3C)[C@@H](O5)[C@H]1OC(C)=O', 'δ-opioid receptors (Rattus norvegicus, UniProt P33533)', '0.211 µM'),
  ('[2H][C@@H]1[C@H]([2H])[C@H]2[C@H]3Cc4ccc(OC)c5c4[C@@]2(CCN3C)[C@@H](O5)[C@H]1O', 'δ-opioid receptors (Rattus norvegicus, UniProt P33533)', '> 10 µM'),
  ('COc1ccc2c3c1O[C@H]1[C@@H](O)CC[C@H]4[C@@H](C2)N(C)CC[C@@]341 [Dihydrocodeine]', 'δ-opioid receptors (Rattus norvegicus, UniProt P33533)', '> 10 µM');

* * *

- Tested on: rats
- run description: Behavioral nociceptive testing, paw-withdrawal test (PWD), heat pain threshold
- Format: in vivo, rat
- protocol conditions: 3 mg/kg s.c., 90 min
assay endpoint: Time course of the antinociceptive effects (paw-withdrawal latency) (s)

INSERT INTO measurements (molecule, units, measured_value) VALUES
  ('CN1CC[C@]23c4c5ccc(O)c4O[C@H]2[C@@H](O)CC[C@H]3[C@H]1C5 [Dihydromorphine]', 's', 14.1),
  ('[2H][C@@H]1[C@H]([2H])[C@H]2[C@H]3Cc4ccc(O)c5c4[C@@]2(CCN3C)[C@@H](O5)[C@H]1O', 's', 14.9),
  ('COc1ccc2c3c1O[C@H]1[C@@H](O)CC[C@H]4[C@@H](C2)N(C)CC[C@@]341 [Dihydrocodeine]', 's', 10.5),
  ('CC(=O)Oc1ccc2c3c1O[C@H]1[C@@H](OC(C)=O)CC[C@H]4[C@@H](C2)N(C)CC[C@@]341 [Dihydroheroine]', 's', 12.9),
  ('[2H][C@H]1C(=O)[C@@H]2Oc3c(OC)ccc4c3[C@@]23CCN(C)[C@H](C4)[C@]3(O)[C@H]1[2H]', 's', 13.6),
  ('[2H][C@@H]1[C@H]([2H])[C@H]2[C@H]3Cc4ccc(OC(C)=O)c5c4[C@@]2(CCN3C)[C@@H](O5)[C@H]1OC(C)=O', 's', 14.3),
  ('CN1CC[C@]23c4c5ccc(O)c4O[C@H]2[C@@H](O)C=C[C@H]3[C@H]1C5', 's', 13.2),
  ('CCOc1ccc2c3c1O[C@H]1[C@@H](O)CC[C@H]4[C@@H](C2)N(C)CC[C@@]341 [Dihydroethylmorphine]', 's', 10.2),
  ('[2H][C@@H]1[C@H]([2H])[C@H]2[C@H]3Cc4ccc(OC)c5c4[C@@]2(CCN3C)[C@@H](O5)[C@H]1O', 's', 11.7),
  ('COc1ccc2c3c1O[C@H]1C(=O)CC[C@@]4(O)[C@@H](C2)N(C)CC[C@]314', 's', 11.9);
